Exercise: for every item that follows, state its recorded Severity Scores (10 μM) 24 h.
test system: adult S. mansoni; experiment: Phenotypic screen of adult S. mansoni worms, severity scores and descriptors; assay type: cell-based, Schistosoma mansoni; conditions: adult S. mansoni, 10 μM, 24 h; scale 0 (no activity) to 4 (maximal activity)
# output: bare number, no unit

Prompt: Dear colleague, I am looking for the recorded Severity Scores (10 μM) 24 h of the following molecule: CCN1CCCN(c2ncc(-c3ccc4c(Nc5cnccn5)ccnc4c3C)cn2)CC1
Completion: 0

Prompt: Dear colleague, I am looking for the recorded Severity Scores (10 μM) 24 h of the following molecule: O=S(=O)(c1ccc(-c2ccc3nccc(Nc4ncccn4)c3c2)cc1)N1CCOCC1
Completion: 3

Prompt: Dear colleague, I am looking for the recorded Severity Scores (10 μM) 24 h of the following molecule: O=S(=O)(c1ccc(-c2ccc3nccc(N[C@@H]4CCCC[C@H]4O)c3c2)cc1)N1CCOCC1 (relative stereo)
Completion: 0

Prompt: Dear colleague, I am looking for the recorded Severity Scores (10 μM) 24 h of the following molecule: CN1CCC(Nc2ccnc3ccc(-c4ccc(S(=O)(=O)N5CCOCC5)cc4)cc23)CC1
Completion: 0

Prompt: Dear colleague, I am looking for the recorded Severity Scores (10 μM) 24 h of the following molecule: CCCN1CCN(c2ncc(-c3ccc4c(Nc5cnccn5)ccnc4c3)cn2)CC1
Completion: 2

Prompt: Dear colleague, I am looking for the recorded Severity Scores (10 μM) 24 h of the following molecule: CCCN1CCCN(c2ncc(-c3ccc4c(Nc5cnccn5)ccnc4c3)cn2)CC1
Completion: 0

Prompt: Dear colleague, I am looking for the recorded Severity Scores (10 μM) 24 h of the following molecule: O=S(=O)(c1ccc(-c2ccc3nccc(NCCN4CCCC4)c3c2)cc1)N1CCOCC1
Completion: 1

Prompt: Dear colleague, I am looking for the recorded Severity Scores (10 μM) 24 h of the following molecule: CCN1CCCN(c2ncc(-c3ccc4c(Nc5cnccn5)ccnc4c3)cn2)CC1
Completion: 0

Prompt: Dear colleague, I am looking for the recorded Severity Scores (10 μM) 24 h of the following molecule: Cc1cc2c(Nc3cnccn3)ccnc2cc1-c1cnc(N2CCCNCC2)nc1
Completion: 0

Prompt: Dear colleague, I am looking for the recorded Severity Scores (10 μM) 24 h of the following molecule: Cc1cnc(Nc2ccnc3cc(-c4cnc(N5CCCN(C)CC5)nc4)ccc23)cn1
Completion: 3

Prompt: Dear colleague, I am looking for the recorded Severity Scores (10 μM) 24 h of the following molecule: Cc1c(-c2cnc(N3CCCN(C)CC3)nc2)ccc2c(Nc3cnccn3)ccnc12
Completion: 0

Prompt: Dear colleague, I am looking for the recorded Severity Scores (10 μM) 24 h of the following molecule: Cc1c(-c2cnc(N3CCCNCC3)nc2)ccc2c(Nc3cnccn3)ccnc12
Completion: 4

Prompt: Dear colleague, I am looking for the recorded Severity Scores (10 μM) 24 h of the following molecule: COc1ccc(NC(=O)c2ccc(-c3cccc(N4CCOCC4)c3)cc2N)cc1Cl
Completion: 2

Prompt: Dear colleague, I am looking for the recorded Severity Scores (10 μM) 24 h of the following molecule: CN1CCN(c2ncc(-c3ccc4c(NCC5CCOCC5)ccnc4c3)cn2)CC1
Completion: 0

Prompt: Dear colleague, I am looking for the recorded Severity Scores (10 μM) 24 h of the following molecule: CN1CCCN(c2ncc(-c3ccc4c(Nc5cnccn5)ccnc4c3)cn2)CC1
Completion: 0

Prompt: Dear colleague, I am looking for the recorded Severity Scores (10 μM) 24 h of the following molecule: COc1ccc(NC(=O)c2ccc(-c3cnc(N4CCCN(C)CC4)nc3)cc2O)cc1Cl
Completion: 2

Prompt: Dear colleague, I am looking for the recorded Severity Scores (10 μM) 24 h of the following molecule: CN1CCCN(c2ncc(-c3ccc4nccc(Nc5cnccn5)c4c3)cn2)CC1
Completion: 0

Prompt: Dear colleague, I am looking for the recorded Severity Scores (10 μM) 24 h of the following molecule: CN1CCCN(c2ncc(-c3ccc4c(c3)ncc3c5ccccc5[nH]c43)cn2)CC1
Completion: 1

Prompt: Dear colleague, I am looking for the recorded Severity Scores (10 μM) 24 h of the following molecule: Cc1cc2c(Nc3cnccn3)ccnc2cc1-c1cnc(N2CCN(C)CC2)nc1
Completion: 4
